# assay.overview: Cardioprotective activity against DAU-induced cardiotoxicity in Wistar rat neonatal ventricular cardiomyocytes preincubated for 3 hrs followed by DAU addition for 3 hrs and further incubated for 48 hrs in drug free medium by LDH assay
# Assay type: functional, tissue-based
readout.kind: pEC50
Would you please state pEC50, meaning minus log10 of the concentration in mol/L, as a bare number?

What value of pEC50 has been reported for the following molecule? C[C@@H](CN1CC(=O)NC(=O)C1)N1CC(=O)NC(=O)C1
4.00

====

# system.name: DNA topoisomerase 2-beta (Homo sapiens)
# Sequence (Q02880 whole entry): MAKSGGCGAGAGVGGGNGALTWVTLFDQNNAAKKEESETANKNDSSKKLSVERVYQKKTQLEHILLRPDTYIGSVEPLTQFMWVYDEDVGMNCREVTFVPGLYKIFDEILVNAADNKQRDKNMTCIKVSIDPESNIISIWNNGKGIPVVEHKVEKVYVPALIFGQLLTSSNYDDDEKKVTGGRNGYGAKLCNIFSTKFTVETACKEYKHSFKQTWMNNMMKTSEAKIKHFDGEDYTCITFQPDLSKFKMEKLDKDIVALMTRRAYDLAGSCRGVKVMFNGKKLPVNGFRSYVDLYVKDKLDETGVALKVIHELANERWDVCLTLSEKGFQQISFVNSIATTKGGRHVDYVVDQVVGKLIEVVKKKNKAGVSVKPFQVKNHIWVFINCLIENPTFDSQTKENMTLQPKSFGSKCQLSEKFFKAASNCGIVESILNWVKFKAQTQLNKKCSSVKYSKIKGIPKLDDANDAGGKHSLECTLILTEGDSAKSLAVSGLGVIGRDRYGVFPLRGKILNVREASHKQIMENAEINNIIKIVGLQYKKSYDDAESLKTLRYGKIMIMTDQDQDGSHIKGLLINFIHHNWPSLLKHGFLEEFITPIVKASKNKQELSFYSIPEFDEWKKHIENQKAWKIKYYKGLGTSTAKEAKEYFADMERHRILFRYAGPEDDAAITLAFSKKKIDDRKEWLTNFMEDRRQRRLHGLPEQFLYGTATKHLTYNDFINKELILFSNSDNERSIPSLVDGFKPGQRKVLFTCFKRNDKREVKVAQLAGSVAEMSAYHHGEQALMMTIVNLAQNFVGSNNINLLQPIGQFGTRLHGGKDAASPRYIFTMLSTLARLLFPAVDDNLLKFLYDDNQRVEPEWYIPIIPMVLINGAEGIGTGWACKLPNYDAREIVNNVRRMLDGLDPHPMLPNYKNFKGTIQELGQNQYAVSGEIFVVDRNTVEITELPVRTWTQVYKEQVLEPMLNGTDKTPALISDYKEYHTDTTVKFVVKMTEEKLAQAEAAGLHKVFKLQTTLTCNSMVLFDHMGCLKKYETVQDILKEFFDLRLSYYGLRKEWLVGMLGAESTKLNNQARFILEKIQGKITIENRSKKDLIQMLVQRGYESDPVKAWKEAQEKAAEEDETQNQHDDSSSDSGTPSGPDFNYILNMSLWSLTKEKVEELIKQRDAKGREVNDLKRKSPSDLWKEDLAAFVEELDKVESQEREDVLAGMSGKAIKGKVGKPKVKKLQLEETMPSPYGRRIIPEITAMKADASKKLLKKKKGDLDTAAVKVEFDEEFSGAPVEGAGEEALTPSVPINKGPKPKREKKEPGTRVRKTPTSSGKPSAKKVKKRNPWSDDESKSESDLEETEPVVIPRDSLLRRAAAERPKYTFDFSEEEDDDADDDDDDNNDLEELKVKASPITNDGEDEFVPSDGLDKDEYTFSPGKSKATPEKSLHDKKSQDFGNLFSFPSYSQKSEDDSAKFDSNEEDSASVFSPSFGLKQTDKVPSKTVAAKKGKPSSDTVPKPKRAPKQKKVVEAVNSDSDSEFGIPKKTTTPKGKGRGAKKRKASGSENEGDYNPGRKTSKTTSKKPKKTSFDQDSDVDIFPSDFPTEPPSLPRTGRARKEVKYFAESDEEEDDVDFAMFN
readout.kind: IC50 (µM)
Write the number in µM without appending the unit.

Under DNA topoisomerase 2-beta (Homo sapiens): IC50 value of C[C@@H](CN1CC(=O)NC(=O)C1)N1CC(=O)NC(=O)C1 ?
50

Sourced from ChEMBL document CHEMBL5053483
